Entries and their measured kcat/Km follow.
- Substrate: CCCCCCCCCCCCCCCCOC[C@@H](O)COP(=O)([O-])OCC[N+](C)(C)C
- test description: released choline by choline oxidase/peroxidase colorimetric assay, Michaelis-Menten fit
- Format: biochemical, Thermocrispum sp. RD004668
- test settings: pH 8.0, 50 °C, 1 min, 2 mM CaCl2, substrate micelles
Write the value in M⁻¹ s⁻¹ as a bare number.

1. LyPls-PLD (lysoplasmalogen-specific phospholipase D) (Thermocrispum sp. RD004668; F211T) (protein, recombinant from pET24/lpls-pld in E. coli BL21(DE3); purified on HisTrap HP) TTRTTDNPWLDARVLNMAHAGGENEAPANTLYAFKRAVKLGANMLELDVQSTKDDQLVVIHNATVDQTTDGTGKVRDLTFEQVHELDAAYNFIPGRHAVPGEPPESYPLRGVRTGEKKPPPGYQPSDFAIPKLADVLEAFPRTPINIEIKGTSDADIPSFLHNAKLLARLLKKTGRTDFIVTSTNDLAVAKFHLLAPDIPIAPGMAGLAAYFLLGVKPMHGTVALQIPVRYQGLEIATPEFIRRAHADGYAVHVWFSGTAPDDEATYNRIIDSCADGLMPAYPALLERILDERGIERPGRPGVDPCG : 5.06e+06

(Q) Tell me measured kcat/Km for LyPls-PLD (lysoplasmalogen-specific phospholipase D) (Thermocrispum sp. RD004668; W282G) (protein, recombinant from pET24/lpls-pld in E. coli BL21(DE3); purified on HisTrap HP) TTRTTDNPWLDARVLNMAHAGGENEAPANTLYAFKRAVKLGANMLELDVQSTKDDQLVVIHNATVDQTTDGTGKVRDLTFEQVHELDAAYNFIPGRHAVPGEPPESYPLRGVRTGEKKPPPGYQPSDFAIPKLADVLEAFPRTPINIEIKGTSDADIPSFLHNAKLLARLLKKTGRTDFIVTSFNDLAVAKFHLLAPDIPIAPGMAGLAAYFLLGVKPMHGTVALQIPVRYQGLEIATPEFIRRAHADGYAVHVGFSGTAPDDEATYNRIIDSCADGLMPAYPALLERILDERGIERPGRPGVDPCG please.
(A) 60900

(Q) Tell me measured kcat/Km for LyPls-PLD (lysoplasmalogen-specific phospholipase D) (Thermocrispum sp. RD004668; M71G) (protein, recombinant from pET24/lpls-pld in E. coli BL21(DE3); purified on HisTrap HP) TTRTTDNPWLDARVLNMAHAGGENEAPANTLYAFKRAVKLGANGLELDVQSTKDDQLVVIHNATVDQTTDGTGKVRDLTFEQVHELDAAYNFIPGRHAVPGEPPESYPLRGVRTGEKKPPPGYQPSDFAIPKLADVLEAFPRTPINIEIKGTSDADIPSFLHNAKLLARLLKKTGRTDFIVTSFNDLAVAKFHLLAPDIPIAPGMAGLAAYFLLGVKPMHGTVALQIPVRYQGLEIATPEFIRRAHADGYAVHVWFSGTAPDDEATYNRIIDSCADGLMPAYPALLERILDERGIERPGRPGVDPCG please.
(A) 1.04e+06

(Q) Tell me measured kcat/Km for LyPls-PLD (lysoplasmalogen-specific phospholipase D) (Thermocrispum sp. RD004668; N173A) (protein, recombinant from pET24/lpls-pld in E. coli BL21(DE3); purified on HisTrap HP) TTRTTDNPWLDARVLNMAHAGGENEAPANTLYAFKRAVKLGANMLELDVQSTKDDQLVVIHNATVDQTTDGTGKVRDLTFEQVHELDAAYNFIPGRHAVPGEPPESYPLRGVRTGEKKPPPGYQPSDFAIPKLADVLEAFPRTPIAIEIKGTSDADIPSFLHNAKLLARLLKKTGRTDFIVTSFNDLAVAKFHLLAPDIPIAPGMAGLAAYFLLGVKPMHGTVALQIPVRYQGLEIATPEFIRRAHADGYAVHVWFSGTAPDDEATYNRIIDSCADGLMPAYPALLERILDERGIERPGRPGVDPCG please.
(A) 965000
